system: subtilisin; test: Subtilisin treatment (resistance against proteolytic degradation); assay type: in vitro ADME; set-up: key: S: stable; PU: partially unstable; conditions: 500 ng/μL subtilisin, 30 min, room temperature
observation-type: Stability (Subtilisin assay)

K84A (protein, left off: 6x His (two), N-terminal, state not stated) KAPKTQPYNPCKPQEVIDTKCMGPKDCLYPNPDSCTTYIQCVPLDEVGNAKPVVAPCPKGLQWNDNVGKKWCDYPNLSTCPVKTPQ    S
D102A (protein, left off: 6x His (two), N-terminal, state not stated) KAPKTQPYNPCKPQEVIDTKCMGPKDCLYPNPDSCTTYIQCVPLDEVGNAKPVVKPCPKGLQWNDNVGKKWCAYPNLSTCPVKTPQ    PU
D94A (protein, left off: 6x His (two), N-terminal, state not stated) KAPKTQPYNPCKPQEVIDTKCMGPKDCLYPNPDSCTTYIQCVPLDEVGNAKPVVKPCPKGLQWNANVGKKWCDYPNLSTCPVKTPQ    PU
